Target: PDE4B (Homo sapiens)
Sequence (Q07343 whole entry): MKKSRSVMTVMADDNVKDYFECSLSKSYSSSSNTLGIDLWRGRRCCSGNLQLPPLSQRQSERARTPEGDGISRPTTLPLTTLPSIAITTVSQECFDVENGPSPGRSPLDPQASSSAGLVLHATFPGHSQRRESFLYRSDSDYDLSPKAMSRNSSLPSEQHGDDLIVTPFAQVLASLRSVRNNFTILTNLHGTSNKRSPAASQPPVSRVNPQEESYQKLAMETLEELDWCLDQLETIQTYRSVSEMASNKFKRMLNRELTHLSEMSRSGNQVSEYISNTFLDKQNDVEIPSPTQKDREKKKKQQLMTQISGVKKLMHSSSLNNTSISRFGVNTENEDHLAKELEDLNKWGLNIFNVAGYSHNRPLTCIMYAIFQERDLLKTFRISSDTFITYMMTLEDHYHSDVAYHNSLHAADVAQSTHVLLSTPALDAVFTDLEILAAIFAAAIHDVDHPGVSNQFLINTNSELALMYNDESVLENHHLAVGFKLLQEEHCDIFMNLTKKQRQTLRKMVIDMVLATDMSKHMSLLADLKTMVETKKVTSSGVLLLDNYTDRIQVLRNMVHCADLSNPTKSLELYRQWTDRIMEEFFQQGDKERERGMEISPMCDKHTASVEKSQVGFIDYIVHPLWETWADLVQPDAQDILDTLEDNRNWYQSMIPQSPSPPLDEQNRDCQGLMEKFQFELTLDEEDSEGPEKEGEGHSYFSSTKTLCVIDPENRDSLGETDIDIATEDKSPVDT
Experiment: In-vitro assay for PDE4 enzymes, real-time enzyme-coupled spectrophotometric assay, PDE4B Activity (Table 10)
Assay type: biochemical
Conditions: human PDE4B (hPDE4B), enzyme-coupled spectrophotometric assay; read-out: PDE4B Activity, hPDE4B
pIC50: −log10 of the molar value. Structures can show the parent of a compound that is named as a salt.
Recorded pIC50 for the following compounds
propertyLabel: pIC50

| compound | observedMeasurement |
| --- | --- |
| COc1ccc(COc2ccnc(Cl)c2)cc1-c1cccc(Cl)c1 [P-603] | > 5.30 |
| COc1ccc(Nc2ccc(N)cc2)cc1-c1cccc(Cl)c1 [P-280, hydrochloride] | > 5.30 |
| Nc1ccc(Cc2ccc(OC(F)F)c(-c3cccc(Cl)c3)c2)cn1 [P-611, hydrochloride] | > 5.30 |
| COc1ccc(Cc2ccc(OCCN(C)C)nc2)c(O)c1-c1cccc([N+](=O)[O-])c1 [P-150] | 4.70 to 5.30 |
| COc1ccc(Cc2ccc(C(=O)N(C)C)nc2)c(F)c1-c1cccc(Cl)c1 [P-382] | > 5.30 |
| COc1ccc(Cc2ccc(CN3CCNC3=O)nc2)c(F)c1-c1cccc(Cl)c1 [P-374] | > 5.30 |
| COc1ccc(Cc2ccc(N3CCC[C@H]3C(N)=O)nc2)c(F)c1-c1cccc(Cl)c1 [P-612] | > 5.30 |
| COc1ccc(CN2CCOC2=O)cc1-c1cccc([N+](=O)[O-])c1 [P-076] | > 5.30 |
| COc1ccc(Cc2ccc(NS(C)(=O)=O)nc2)c(F)c1-c1cccc(Cl)c1 [P-258] | > 5.30 |
| COc1ccc(Cc2ccc(CNS(C)(=O)=O)c(O)c2)c(F)c1-c1cccc(Cl)c1 [P-299] | 4.70 to 5.30 |
| COc1ccc(Cc2cnc(N)s2)c(F)c1-c1cccc(Cl)c1 [P-369] | > 5.30 |
| COc1ccc(Cc2c(C)noc2C)cc1-c1ccc2c(c1)OCO2 [P-062] | > 5.30 |
| COc1ccc(Cn2cnc(-c3cccnc3)c2)c(F)c1-c1cccc(Cl)c1 [P-479] | 4.70 to 5.30 |
| COc1ccc(Cc2ccc(NCCO)nc2)c(F)c1-c1cccc(Cl)c1 [P-411] | > 5.30 |
| NC(=O)Nc1ccc(Cc2ccc(O)c(-c3cccc(Cl)c3)c2)cc1 [P-421] | > 5.30 |
| COc1ccc(Cn2cncn2)cc1-c1ccc2c(c1)OCO2 [P-044] | > 5.30 |
| COc1ccc(Cc2ccc(NC(N)=O)cc2)c(F)c1-c1cccc(C(C)=O)c1 [P-269] | > 5.30 |
| COc1ccc(Cc2ccc(NC(C)=O)nc2)c(F)c1-c1cccc(C(C)=O)c1 [P-345] | > 5.30 |
| CCNC(=O)Nc1ccc(Cc2ccc(OC)c(-c3cccc(C#N)c3)c2)cn1 [P-400] | > 5.30 |
